Source listed as patent US10787432B2.

biological target: human orexin 2 receptor (Homo sapiens, UniProt O43614); construct: stably expressing the full-length human orexin 2 receptor; expressed in transfected cells; host or cells: CHO-K1 (CHO-K1/hOX2), co-expressing aequorin; assay: Assay B: In vitro testing of OX2R potency: OX2R IP1 (HTRF, CHO-K1/hOX2 cells, Orexin A as agonist); type: cell-based; details: Orexin A 0.5 nM
Sequence (O43614 whole entry): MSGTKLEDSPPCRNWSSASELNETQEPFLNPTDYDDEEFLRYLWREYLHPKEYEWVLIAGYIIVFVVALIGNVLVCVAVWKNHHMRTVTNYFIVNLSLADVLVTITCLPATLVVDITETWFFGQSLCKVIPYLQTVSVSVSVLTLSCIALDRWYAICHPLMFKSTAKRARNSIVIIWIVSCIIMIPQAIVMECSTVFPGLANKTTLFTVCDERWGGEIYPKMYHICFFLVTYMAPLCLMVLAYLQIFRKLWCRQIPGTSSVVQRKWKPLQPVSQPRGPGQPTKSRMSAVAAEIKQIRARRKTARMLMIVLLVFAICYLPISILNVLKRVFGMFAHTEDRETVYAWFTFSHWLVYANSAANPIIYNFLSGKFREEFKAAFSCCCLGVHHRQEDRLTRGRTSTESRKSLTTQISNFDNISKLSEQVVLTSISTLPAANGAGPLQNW
So I've got a bunch of molecules here, and I need their Kb values.

Q. Indicate the recorded Kb value for this molecule: `CCN(C(=O)c1cc(F)c(F)cc1-n1nccn1)[C@@H](C)COc1ccc(C(F)(F)F)cn1`
A. 138 nM

Q. Indicate the recorded Kb value for this molecule: `CCN(C(=O)c1ccccc1-c1cnnc(C)c1)[C@@H](C)COc1ccc(C(F)(F)F)cn1`
A. 1290 nM

Q. Indicate the recorded Kb value for this molecule: `CCN(C(=O)c1cc(F)ccc1-n1nccn1)[C@@H](C)COc1ccc(C(F)(F)F)cn1`
A. 44 nM

Q. Indicate the recorded Kb value for this molecule: `CCN(C(=O)c1cccc(F)c1-c1ncccn1)[C@@H](C)COc1ccc(C(F)(F)F)cn1`
A. 20 nM

Q. Indicate the recorded Kb value for this molecule: `CCN(C(=O)c1ccc(F)c(F)c1-n1nccn1)[C@@H](C)COc1ccc(C(F)(F)F)cn1`
A. 68 nM

Q. Indicate the recorded Kb value for this molecule: `CCN(C(=O)c1ccccc1-c1cnn(C)c1)[C@@H](C)COc1ncc(C(F)(F)F)cc1F`
A. 152 nM

Q. Indicate the recorded Kb value for this molecule: `CCN(C(=O)c1cc(F)c(F)cc1-n1nccn1)[C@@H](C)COc1ccc(Cl)cn1`
A. 160 nM

Q. Indicate the recorded Kb value for this molecule: CC[C@@H](CNc1ccc(Cl)cn1)N(C)C(=O)c1cc(C)ccc1-n1nccn1 [Ex 1 in WO2016/034882, reference compound]
A. 36 nM

---

So I've got a bunch of compounds here, and I need their log10(Kb) values.
Target: human Orexin 1 receptor (Homo sapiens, UniProt O43613)
Construct: stably expressing the full-length human Orexin 1 receptor; expressed in transfected cells; host or cells: CHO-K1 (CHO-K1/hOX1), co-expressing aequorin
Sequence (O43613 1-425): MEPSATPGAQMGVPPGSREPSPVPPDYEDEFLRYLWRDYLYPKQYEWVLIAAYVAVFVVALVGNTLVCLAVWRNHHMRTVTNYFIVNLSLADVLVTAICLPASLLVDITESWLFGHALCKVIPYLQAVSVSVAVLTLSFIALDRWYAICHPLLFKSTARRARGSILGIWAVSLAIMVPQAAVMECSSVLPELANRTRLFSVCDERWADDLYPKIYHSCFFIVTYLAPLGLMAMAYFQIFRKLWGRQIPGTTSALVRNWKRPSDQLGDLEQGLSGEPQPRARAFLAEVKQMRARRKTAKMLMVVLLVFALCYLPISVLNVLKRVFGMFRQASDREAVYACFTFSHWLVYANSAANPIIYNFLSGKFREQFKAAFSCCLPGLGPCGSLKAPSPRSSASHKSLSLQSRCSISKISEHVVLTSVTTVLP
Assay: Assay A: In vitro testing of OX1R potency: OX1R IP1 (HTRF, CHO-K1/hOX1 cells, Orexin A as agonist)
Assay type: cell-based
Settings: Orexin A 50 nM; read-out: OX1R Kb (Orexin A concentration used)
Form field - Quantity: Kb; Unit: pM; Scale: log10

Q. Indicate the recorded log10(Kb) value for this compound: `CCN(C(=O)c1ccc(C)cc1-c1nnc(C)o1)[C@@H](C)COc1ccc(OC(F)(F)F)cn1`
A. 3.18

Q. Indicate the recorded log10(Kb) value for this compound: `CCN(C(=O)c1cccc(Cl)c1-n1nccn1)[C@@H](C)COc1ncc(C(F)(F)F)cc1F`
A. 1.82

Q. Indicate the recorded log10(Kb) value for this compound: `CCN(C(=O)c1ccccc1-c1cnn(C)c1)[C@@H](C)COc1ccc(C(F)(F)F)cn1`
A. 2.88

Q. Indicate the recorded log10(Kb) value for this compound: `CCN(C(=O)c1ccccc1-c1noc(C)n1)[C@@H](C)COc1ccc(C(F)(F)F)cn1`
A. 2.23

Q. Indicate the recorded log10(Kb) value for this compound: `CCN(C(=O)c1cc(F)ccc1-n1nccn1)[C@@H](C)COc1ccc(Cl)cn1`
A. 2.94

Q. Indicate the recorded log10(Kb) value for this compound: `CCN(C(=O)c1c(-n2nccn2)ccc(C)c1F)[C@@H](C)COc1ccc(C(F)(F)F)cn1`
A. 1.40

Q. Indicate the recorded log10(Kb) value for this compound: `CCN(C(=O)c1cc(F)cc(F)c1-n1nccn1)[C@@H](C)COc1ccc(OC(F)(F)F)cn1`
A. 2.79

Q. Indicate the recorded log10(Kb) value for this compound: `CCN(C(=O)c1ccccc1-c1ncccn1)[C@@H](C)COc1ccc(Br)cn1`
A. 2.04

---

target: human Orexin 1 receptor (Homo sapiens); construct: stably expressing the full-length human Orexin 1 receptor; expressed in transfected cells; host or cells: CHO-K1 (CHO-K1/hOX1), co-expressing aequorin; test: Assay A: In vitro testing of OX1R potency: OX1R IP1 (HTRF, CHO-K1/hOX1 cells, Orexin A as agonist); type: cell-based; conditions: OX1R Kb at 50 nM Orexin A
So I've got a bunch of compounds here, and I need their OX2R Kb/OX1R Kb values.
Just the number, please, no unit attached.

Q. Indicate the recorded OX2R Kb/OX1R Kb value for this compound: CCN(C(=O)c1cccc(F)c1-n1nccn1)[C@@H](C)COc1ccc(Cl)cn1 [Example 114]
A. 98

Q. Indicate the recorded OX2R Kb/OX1R Kb value for this compound: CCN(C(=O)c1cc(F)c(F)cc1-n1nccn1)[C@@H](C)COc1ccc(C(F)(F)F)cn1 [Example 4]
A. 187

Q. Indicate the recorded OX2R Kb/OX1R Kb value for this compound: CCN(C(=O)c1cccc(F)c1-c1ncccn1)[C@@H](C)COc1ccc(C(F)(F)F)cn1 [Example 97]
A. 800

Q. Indicate the recorded OX2R Kb/OX1R Kb value for this compound: CCN(C(=O)c1c(F)cccc1-n1nccn1)[C@@H](C)COc1ncc(C(F)(F)F)cc1F [Example 56]
A. 257

Q. Indicate the recorded OX2R Kb/OX1R Kb value for this compound: CCN(C(=O)c1ccc(Cl)cc1-n1nccn1)[C@@H](C)COc1ccc(C(F)(F)F)cn1 [Example 26]
A. 400

Q. Indicate the recorded OX2R Kb/OX1R Kb value for this compound: CCN(C(=O)c1cccc(Cl)c1-n1nccn1)[C@@H](C)COc1ccc(C(F)(F)F)cn1 [Example 90]
A. 520

Q. Indicate the recorded OX2R Kb/OX1R Kb value for this compound: CCN(C(=O)c1cccc(F)c1-n1nccn1)[C@@H](C)COc1ccc(Br)cn1 [Example 111]
A. 213

Q. Indicate the recorded OX2R Kb/OX1R Kb value for this compound: CCN(C(=O)c1cccc(Cl)c1-n1nccn1)[C@@H](C)COc1ncc(C(F)(F)F)cc1F [Example 49]
A. 333

---

molecular target: human Orexin 1 receptor (Homo sapiens, UniProt O43613); construct: stably expressing the full-length human Orexin 1 receptor; expressed in transfected cells; host or cells: CHO-K1 (CHO-K1/hOX1), co-expressing aequorin; experiment: Assay A: In vitro testing of OX1R potency: OX1R IP1 (HTRF, CHO-K1/hOX1 cells, Orexin A as agonist); assay type: cell-based; details: OX1R Kb at 0.5 nM Orexin A
So I've got a bunch of molecules here, and I need their OX2R Kb/OX1R Kb values.
Just the number, please, no unit attached.

Q. Indicate the recorded OX2R Kb/OX1R Kb value for this molecule: CCN(C(=O)c1cc(F)c(F)cc1-n1nccn1)[C@@H](C)COc1ccc(C(F)(F)F)cn1 [Example 4]
A. 276

Q. Indicate the recorded OX2R Kb/OX1R Kb value for this molecule: CCN(C(=O)c1cccc(C)c1-c1nnc(C)o1)[C@@H](C)COc1ccc(Cl)cn1 [Example 39]
A. 93

Q. Indicate the recorded OX2R Kb/OX1R Kb value for this molecule: CCN(C(=O)c1cc(F)ccc1-n1nccn1)[C@@H](C)COc1ncc(C(F)(F)F)cc1F [Example 51]
A. 259

Q. Indicate the recorded OX2R Kb/OX1R Kb value for this molecule: CCN(C(=O)c1cc(F)ccc1-c1ncccn1)[C@@H](C)COc1ccc(Br)cn1 [Example 120]
A. 165

Q. Indicate the recorded OX2R Kb/OX1R Kb value for this molecule: CCN(C(=O)c1cc(C#N)ccc1-n1nccn1)[C@@H](C)COc1ccc(C(F)(F)F)cn1 [Example 95]
A. 71

Q. Indicate the recorded OX2R Kb/OX1R Kb value for this molecule: CCN(C(=O)c1ccccc1-c1cnnc(C)c1)[C@@H](C)COc1ccc(C(F)(F)F)cn1 [Example 84]
A. 150

Q. Indicate the recorded OX2R Kb/OX1R Kb value for this molecule: CCN(C(=O)c1c(F)cccc1-n1nccn1)[C@@H](C)COc1ncc(C(F)(F)F)cc1F [Example 56]
A. 98

Q. Indicate the recorded OX2R Kb/OX1R Kb value for this molecule: CCN(C(=O)c1cc(F)c(F)cc1-n1nccn1)[C@@H](C)COc1ccc(Cl)cn1 [Example 30]
A. 70

Q. Indicate the recorded OX2R Kb/OX1R Kb value for this molecule: CCN(C(=O)c1ccc(C#N)cc1-n1nccn1)[C@@H](C)COc1ncc(C(F)(F)F)cc1F [Example 69]
A. 136

Q. Indicate the recorded OX2R Kb/OX1R Kb value for this molecule: CCN(C(=O)c1ccc(C)cc1-c1nnc(C)o1)[C@@H](C)COc1ccc(OC(F)(F)F)cn1 [Example 121]
A. 314

Q. Indicate the recorded OX2R Kb/OX1R Kb value for this molecule: CCN(C(=O)c1ccccc1-c1cnn(C)c1)[C@@H](C)COc1ncc(C(F)(F)F)cc1F [Example 132]
A. 89

Q. Indicate the recorded OX2R Kb/OX1R Kb value for this molecule: CCN(C(=O)c1cccc(F)c1-c1nnc(C)o1)[C@@H](C)COc1ncc(C(F)(F)F)cc1F [Example 61]
A. 452

Q. Indicate the recorded OX2R Kb/OX1R Kb value for this molecule: CCN(C(=O)c1ccccc1-c1ccn(C)c(=O)c1)[C@@H](C)COc1ccc(C(F)(F)F)cn1 [Example 81]
A. 575

Q. Indicate the recorded OX2R Kb/OX1R Kb value for this molecule: CCN(C(=O)c1ccccc1-c1nnc(C)o1)[C@@H](C)COc1ccc(C(F)(F)F)cn1 [Example 22]
A. 217

Q. Indicate the recorded OX2R Kb/OX1R Kb value for this molecule: CCN(C(=O)c1cccc(F)c1-c1nnc(C)o1)[C@@H](C)COc1ccc(Cl)cn1 [Example 36]
A. 139

Q. Indicate the recorded OX2R Kb/OX1R Kb value for this molecule: CCN(C(=O)c1ccccc1-c1cnc(C)nc1)[C@@H](C)COc1ccc(C(F)(F)F)cn1 [Example 85]
A. 68

Q. Indicate the recorded OX2R Kb/OX1R Kb value for this molecule: CCN(C(=O)c1cc(F)cc(F)c1-n1nccn1)[C@@H](C)COc1ncc(C(F)(F)F)cc1F [Example 54]
A. 277

Q. Indicate the recorded OX2R Kb/OX1R Kb value for this molecule: CCN(C(=O)c1cccc(F)c1-n1nccn1)[C@@H](C)COc1ccc(F)c(C(F)(F)F)n1 [Example 133]
A. 63

Q. Indicate the recorded OX2R Kb/OX1R Kb value for this molecule: CCN(C(=O)c1cccc(F)c1-n1nccn1)[C@@H](C)COc1ncc(Br)cc1F [Example 112]
A. 168

Q. Indicate the recorded OX2R Kb/OX1R Kb value for this molecule: CCN(C(=O)c1ccc(F)cc1-n1nccn1)[C@@H](C)COc1ncc(C(F)(F)F)cc1F [Example 48]
A. 156

Q. Indicate the recorded OX2R Kb/OX1R Kb value for this molecule: CCN(C(=O)c1cccc(F)c1-n1nccn1)[C@@H](C)COc1ncc(C(F)(F)F)cc1F [Example 113]
A. 173

Q. Indicate the recorded OX2R Kb/OX1R Kb value for this molecule: CCN(C(=O)c1cc(F)ccc1-n1nccn1)[C@@H](C)COc1ccc(Cl)cn1 [Example 29]
A. 71

Q. Indicate the recorded OX2R Kb/OX1R Kb value for this molecule: CCN(C(=O)c1cc(F)cc(F)c1-n1nccn1)[C@@H](C)COc1ccc(Cl)cn1 [Example 32]
A. 106

Q. Indicate the recorded OX2R Kb/OX1R Kb value for this molecule: CCN(C(=O)c1ccccc1-c1cncc(C#N)c1)[C@@H](C)COc1ccc(C(F)(F)F)cn1 [Example 76]
A. 113

Q. Indicate the recorded OX2R Kb/OX1R Kb value for this molecule: CCN(C(=O)c1ccc(C)cc1-c1nnc(C)o1)[C@@H](C)COc1ccc(Cl)cn1 [Example 38]
A. 313

Q. Indicate the recorded OX2R Kb/OX1R Kb value for this molecule: CCN(C(=O)c1ccccc1-c1nnc(C)o1)[C@@H](C)COc1ncc(C(F)(F)F)cc1F [Example 68]
A. 527

Q. Indicate the recorded OX2R Kb/OX1R Kb value for this molecule: CCN(C(=O)c1ccc(C#N)cc1-n1nccn1)[C@@H](C)COc1ccc(C(F)(F)F)cn1 [Example 103]
A. 273

Q. Indicate the recorded OX2R Kb/OX1R Kb value for this molecule: CCN(C(=O)c1ccc(OC)cc1-n1nccn1)[C@@H](C)COc1ncc(C(F)(F)F)cc1F [Example 131]
A. 506
